- Test Target: T1, P1182_AMBMA (Amblyomma maculatum, UniProt G3MJ83 27-115);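 also: biolayer interferometry on an Octet system: chemokines at several doses tested against tick chemokine-binding proteins, association, equilibrium and dissociation curves fitted to derive Kd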
- T1 sequence: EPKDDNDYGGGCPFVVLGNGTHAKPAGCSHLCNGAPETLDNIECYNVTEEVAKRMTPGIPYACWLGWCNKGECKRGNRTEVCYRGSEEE
- Assay Remarks: BLI
Kd by entry:
Give the quantity in nM, number only.

CCL14_HUMAN (ligand) TESSSRGPYHPSECCFTYTTYKIPRQRIMDYYETNSQCSKPGIVFITKRGHSVCTNPSDKWVQDYIKDMKEN : 50
CCL4_HUMAN (ligand) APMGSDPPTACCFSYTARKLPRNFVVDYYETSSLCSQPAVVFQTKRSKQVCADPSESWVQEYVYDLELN : 63

Form field: reported Kd of CCL4L1_HUMAN (ligand) APMGSDPPTACCFSYTARKLPRNFVVDYYETSSLCSQPAVVFQTKRGKQVCADPSESWVQEYVYDLELN
92

Form field: reported Kd of CCL18_HUMAN (ligand) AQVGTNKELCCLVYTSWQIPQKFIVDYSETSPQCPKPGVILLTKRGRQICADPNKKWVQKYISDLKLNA
33

Form field: reported Kd of CCL3L1_HUMAN (ligand) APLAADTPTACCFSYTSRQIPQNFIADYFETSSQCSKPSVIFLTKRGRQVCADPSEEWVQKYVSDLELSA
9.5

Form field: reported Kd of CCL3_HUMAN (ligand) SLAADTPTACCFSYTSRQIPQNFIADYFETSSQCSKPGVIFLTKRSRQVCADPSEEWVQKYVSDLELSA
5.4

Form field: reported Kd of CCL8_HUMAN (ligand, UniProt P80075 24-99, looked up) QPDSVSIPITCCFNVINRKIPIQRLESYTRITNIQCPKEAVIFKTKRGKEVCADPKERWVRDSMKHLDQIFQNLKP
29
